- TARGET ENTITY: human JAK2 (a.a. 828-1132) (Homo sapiens, UniProt O60674)
- Construct: JAK2 (a.a. 828-1132); His tag (N); made in house; host or cells: insect cells (baculovirus)
- Sequence (O60674 828-1132): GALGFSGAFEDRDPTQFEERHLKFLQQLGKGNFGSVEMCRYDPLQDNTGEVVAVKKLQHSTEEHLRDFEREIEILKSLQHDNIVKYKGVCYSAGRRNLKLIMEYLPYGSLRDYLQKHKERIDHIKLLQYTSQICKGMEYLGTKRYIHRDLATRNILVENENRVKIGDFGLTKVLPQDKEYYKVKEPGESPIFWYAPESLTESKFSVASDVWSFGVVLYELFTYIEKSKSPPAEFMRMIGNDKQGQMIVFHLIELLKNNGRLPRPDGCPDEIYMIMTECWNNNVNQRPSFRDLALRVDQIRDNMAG
- PROTOCOL NOTES: In vitro JAK kinase assay (HTRF, phosphorylation of a biotinylated peptide), JAK2
- Assay type: biochemical
OUTCOME MEASURE: IC50

compound="O=C(Nc1ccccc1)N1CCC(COc2ccc3cc2CCc2cncc(c2)Nc2ncc(Cl)c(n2)N3)C1 (stereo not drawn) [Example C59, bis(trifluoroacetate)]" target_entity="human JAK2 (a.a. 828-1132) (Homo sapiens, UniProt O60674)" reported_value="> 400 nM"
compound="Cc1cc(C(=O)N2CCC(COc3ccc4cc3CCc3cncc(c3)Nc3ncc(Cl)c(n3)N4)C2)no1 (stereo not drawn) [Example C58, bis(trifluoroacetate)]" target_entity="human JAK2 (a.a. 828-1132) (Homo sapiens, UniProt O60674)" reported_value="> 400 nM"
compound="O=C(Cc1ccccn1)Nc1ccc2cc1CCc1cccc(c1)Nc1ncc(Cl)c(n1)N2 [Example C41, bis(trifluoroacetate)]" target_entity="human JAK2 (a.a. 828-1132) (Homo sapiens, UniProt O60674)" reported_value="65 nM"

---

- TARGET ENTITY: human JAK3 (a.a. 781-1124) (Homo sapiens, UniProt P52333)
- Construct: JAK3 (a.a. 781-1124); His tag (N); made in house; host or cells: insect cells (baculovirus)
- Sequence (P52333 781-1124): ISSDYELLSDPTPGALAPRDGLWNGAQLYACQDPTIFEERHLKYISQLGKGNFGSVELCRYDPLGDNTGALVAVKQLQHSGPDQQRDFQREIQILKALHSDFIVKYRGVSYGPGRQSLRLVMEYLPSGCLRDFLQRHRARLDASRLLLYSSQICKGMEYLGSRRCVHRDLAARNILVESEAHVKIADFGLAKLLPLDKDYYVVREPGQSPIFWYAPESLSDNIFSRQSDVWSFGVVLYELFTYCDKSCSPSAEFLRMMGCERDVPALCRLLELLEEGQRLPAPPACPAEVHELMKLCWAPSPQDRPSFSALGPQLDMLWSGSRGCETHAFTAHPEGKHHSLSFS
- PROTOCOL NOTES: In vitro JAK kinase assay (HTRF, phosphorylation of a biotinylated peptide), JAK3
- Format: biochemical
- SETTINGS: Table B1
Structures can show the parent of a compound that is named as a salt.
Parameter IC50: see the listing below.
OUTCOME MEASURE: IC50 (nM)

compound="Cc1cccc(C(=O)Nc2ccc3cc2CCc2cccc(c2)Nc2ncc(Cl)c(n2)N3)c1 [Example B46, trifluoroacetate]" result_operator== reported_value=9.7
compound="OCc1ccc2cc1CCc1cccc(c1)Nc1ncc(Cl)c(n1)N2 [Example B23, trifluoroacetate]" result_operator== reported_value=1.2
compound="O=S(=O)(Nc1ccc2cc1CCc1cccc(c1)Nc1ncc(Cl)c(n1)N2)c1cccc(Cl)c1 [Example B138, trifluoroacetate]" result_operator== reported_value=0.33
compound="CS(=O)(=O)N1CCN(C(=O)Nc2ccc3cc2CCc2cncc(c2)Nc2ncc(Cl)c(n2)N3)CC1 [Example B318, bis(trifluoroacetate)]" result_operator=> reported_value=400

---

- TARGET ENTITY: UniProt:P29597
- Sequence (P29597 whole entry): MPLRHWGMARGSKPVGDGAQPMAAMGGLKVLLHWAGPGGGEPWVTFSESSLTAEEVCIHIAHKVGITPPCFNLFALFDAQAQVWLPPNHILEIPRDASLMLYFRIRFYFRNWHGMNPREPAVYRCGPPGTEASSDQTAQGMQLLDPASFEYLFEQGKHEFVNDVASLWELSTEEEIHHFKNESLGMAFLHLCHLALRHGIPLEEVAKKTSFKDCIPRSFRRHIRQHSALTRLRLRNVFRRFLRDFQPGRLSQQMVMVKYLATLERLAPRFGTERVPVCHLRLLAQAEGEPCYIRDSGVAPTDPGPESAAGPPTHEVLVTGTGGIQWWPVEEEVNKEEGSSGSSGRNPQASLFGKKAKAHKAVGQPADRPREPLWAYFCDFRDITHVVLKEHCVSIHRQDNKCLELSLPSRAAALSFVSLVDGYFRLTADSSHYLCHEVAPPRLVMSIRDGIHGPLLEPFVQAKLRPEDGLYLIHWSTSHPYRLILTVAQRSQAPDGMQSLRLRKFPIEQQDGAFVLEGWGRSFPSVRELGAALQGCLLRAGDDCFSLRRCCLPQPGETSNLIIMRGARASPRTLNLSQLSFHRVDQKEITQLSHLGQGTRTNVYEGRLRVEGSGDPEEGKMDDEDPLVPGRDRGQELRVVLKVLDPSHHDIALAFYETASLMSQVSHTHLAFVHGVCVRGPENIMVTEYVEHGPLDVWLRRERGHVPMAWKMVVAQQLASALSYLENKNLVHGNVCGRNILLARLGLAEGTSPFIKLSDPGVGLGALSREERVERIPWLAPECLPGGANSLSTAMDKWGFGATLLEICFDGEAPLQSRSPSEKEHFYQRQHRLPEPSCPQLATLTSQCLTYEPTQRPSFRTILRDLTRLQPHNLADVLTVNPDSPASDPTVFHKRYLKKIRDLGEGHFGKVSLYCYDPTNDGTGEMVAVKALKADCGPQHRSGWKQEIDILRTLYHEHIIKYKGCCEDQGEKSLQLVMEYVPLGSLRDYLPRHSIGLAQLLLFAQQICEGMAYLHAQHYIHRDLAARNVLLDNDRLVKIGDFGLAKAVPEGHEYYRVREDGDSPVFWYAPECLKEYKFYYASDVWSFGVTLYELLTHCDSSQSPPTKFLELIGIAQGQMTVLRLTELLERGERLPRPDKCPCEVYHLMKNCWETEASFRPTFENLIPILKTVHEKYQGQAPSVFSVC
- PROTOCOL NOTES: TYK2 kinase inhibition (Table A1)
- Format: biochemical
- SETTINGS: Table B1
pIC50: −log10 of the molar value. Where a name gives a salt, the structure may show the parent alone.
Parameter pIC50: see the listing below.
OUTCOME MEASURE: pIC50

compound="Clc1cccc(N2CCN(Cc3cc4cc(c3)Nc3nc(ncc3Cl)Nc3cccc(c3)CC4)CC2)n1 [Example B217, tris(trifluoroacetate)]" outcome_measure=pIC50 reported_value="< 6.00"
compound="O=C(Nc1ccccc1Cl)c1cc2cc(c1)Nc1nc(ncc1Cl)Nc1cccc(c1)CC2 [Example B14, trifluoroacetate]" outcome_measure=pIC50 reported_value="< 6.00"
compound="Cc1cc(C(=O)Nc2cc3cc(c2)Nc2nc(ncc2Cl)Nc2cccc(c2)CC3)no1 [Example B205, trifluoroacetate]" outcome_measure=pIC50 reported_value="< 6.00"
